compounds and their reported MIC
Test system: Staphylococcus aureus SG 511
Test: Minimum inhibition concentration (MIC), Table 5
Format: cell-based
Settings: Staphylococcus aureus, SG511, Germ: Staphylococcus aureus SG 511; read-out: Minimum inhibition concentration (MIC)

COMPOUND: O=C(Cc1ccc(C2=NCCN2)cc1)NC1C(=O)N2C(C(=O)O)=C(CSc3nncs3)CSC12 (stereo not shown)
MEASURED_TARGET: Staphylococcus aureus SG 511
TEST_VALUE: 0.0625 to 0.078 mg/L
//
COMPOUND: Cc1nnc(SCC2=C(C(=O)O)N3C(=O)C(NC(=O)Cc4ccc(C(=N)N)cc4)C3SC2)s1 (stereo not shown)
MEASURED_TARGET: Staphylococcus aureus SG 511
TEST_VALUE: 0.0625 to 0.078 mg/L
//
COMPOUND: CCCCc1nnc(SCC2=C(C(=O)O)N3C(=O)C(NC(=O)Cc4ccc(C(=N)N)cc4)C3SC2)s1 (stereo not shown)
MEASURED_TARGET: Staphylococcus aureus SG 511
TEST_VALUE: 0.0625 to 0.078 mg/L
//
COMPOUND: CCc1nnc(SCC2=C(C(=O)O)N3C(=O)C(NC(=O)Cc4ccc(C5=NCCN5)cc4)C3SC2)s1 (stereo not shown)
MEASURED_TARGET: Staphylococcus aureus SG 511
TEST_VALUE: 0.0196 to 0.0391 mg/L
//
COMPOUND: O=C(Cc1ccc(C2=NCCCN2)cc1)NC1C(=O)N2C(C(=O)O)=C(CSc3nnc(-c4ccccc4)s3)CSC12 (stereo not shown)
MEASURED_TARGET: Staphylococcus aureus SG 511
TEST_VALUE: 0.0625 to 0.078 mg/L

-- ask Request: MIC, test system Staphylococcus aureus SG 511, entry CC(C)(C)c1csc(SCC2=C(C(=O)O)N3C(=O)C(NC(=O)Cc4ccc(C5=NCCN5)cc4)C3SC2)n1 (stereo not shown)
-- reply 0.0625 to 0.078 mg/L

-- ask Request: MIC, test system Staphylococcus aureus SG 511, entry N=C(N)c1ccc(OCC(=O)NC2C(=O)N3C(C(=O)O)=C(CSc4nnc(-c5ccccc5)o4)CSC23)cc1 (stereo not shown)
-- reply 0.0196 to 0.0391 mg/L
